We begin with a simple list: items and their reported log10 EC50.
Tested on: BxPC-3 (pancreatic cancer)
test: FMCA, BxPC-3
Format: cell-based
condition: Homo sapiens, BxPC-3 pancreatic cancer cells
property.measured: log10 EC50 (log10 of the value in nM)

molecule	measurement
COc1ccc2[nH]cc(CCNc3nccc(Nc4ccc5c(c4)cc(C)n5C)n3)c2c1 [Example 13]	2.11
COc1ccc2[nH]cc(CCNc3nccc(Nc4ccc5[nH]c(C)nc5c4)n3)c2c1 [Example 19]	2.96
COc1ccc2[nH]cc(CCNc3nccc(Nc4ccc5[nH]c(CO)cc5c4)n3)c2c1 [Example 15]	2.08
CCOc1ccc2[nH]cc(CCNc3nccc(Nc4ccc5[nH]c(C)cc5c4)n3)c2c1 [Example 5]	1.74
COc1ccc2[nH]cc(CCNc3nccc(Nc4ccc5[nH]c(C)cc5c4)n3)c2c1 [Example 4]	1.57
